Each item that follows carries a reported permeability.
Experiment: Passive transcellular permeability of the compound at pH 7.4 by PAMPA
Type: ADME

The cases that follow already have their permeability on record.
stdin: Need permeability of CCCCC#Cc1c(C)[nH]c2ccc(OC)cc2c1=O , thanks.
stdout: 2438.2 ×10⁻⁶ cm/s

stdin: What does the data say about its permeability? Entry: COc1ccc2nc(C)c(Cc3ccccc3)c(OC)c2c1
stdout: 1067.76 ×10⁻⁶ cm/s

***
stdin: Find the recorded permeability belonging to CCCCC#Cc1c(C)[nH]c2ccccc2c1=O and report it.
stdout: 2137.05 ×10⁻⁶ cm/s

stdin: Data request, read-out permeability, for COc1ccc2c(OC)c(Cc3ccccc3)c(C)nc2c1
stdout: 1277.24 ×10⁻⁶ cm/s

====

Assay: Passive transcellular permeability of the compound at pH 4 by PAMPA
Type: ADME
Conditions: read-out: permeability
The reader will find reported Papp values listed item by item below.
The reply should contain only the number, in ×10⁻⁶ cm/s.

Worked set:
stdin: Consider the compound COc1ccc2c(OC)c(Cc3ccccc3)c(C)nc2c1 and give its measured Papp.
stdout: 325

stdin: For the compound Cc1[nH]c2cc(Cl)ccc2c(=O)c1Cc1ccccc1 , what Papp is on record?
stdout: 341

stdin: Can you look up the measured Papp of COc1cc2[nH]c(C)c(-c3ccccc3)c(=O)c2cc1Cl for me?
stdout: 105

stdin: Need Papp of COc1cc2[nH]c(C)c(/C=C/C(=O)OC(C)(C)C)c(=O)c2cc1Cl , thanks.
stdout: 249

stdin: Endpoint output: Papp of Cc1[nH]c2ccc(Cl)c(Cl)c2c(=O)c1-c1ccccc1 . Value?
stdout: 285

With those in mind, consider the next compound.
stdin: Return reported Papp; argument: COc1cc2[nH]c(C)c(-c3ccccc3)c(=O)c2cc1Br
stdout: 306

====

Experiment: Lipophilicity, log D of the compound at pH 7.4
Details: buffer
ENDPOINT LABEL: logD
// return just the number, without any unit appended

Observe how each entry below is paired with its result.
stdin: Data request, read-out logD, for COc1ccc2c(=O)cc(C)[nH]c2c1
stdout: 1.2

stdin: I would be grateful if you could share the reported logD for Cc1[nH]c2cccc(Cl)c2c(=O)c1-c1ccccc1 .
stdout: 1.88

stdin: Need logD of COc1c(Cc2ccccc2)c(C)nc2ccc(Cl)cc12 , thanks.
stdout: 4.93

stdin: Given CCCCCCCc1c(C)nc2ccccc2c1O , state its recorded logD.
stdout: 3.39

stdin: If you can, please state the reported logD value of COc1ccc2[nH]c(C)c(Br)c(=O)c2c1 .
stdout: 1.62

More entries:
stdin: What value of logD has been reported for the following compound? CCc1c(C)[nH]c2cc(OC)c(F)cc2c1=O
stdout: 1.2

stdin: Requested read-out: logD. Entry: Cc1[nH]c2ccccc2c(=O)c1/C=C/c1ccccc1
stdout: 4.4

stdin: Param item = CCCCC#Cc1c(C)[nH]c2ccccc2c1=O ; retrieve measured logD.
stdout: 5.44

====

Experiment: Half life in mouse liver microsomes
Type: ADME, Microsome
ENDPOINT LABEL: half-life (min)
The answer is to be given in min; state only the numeric part.

Please review the following examples before continuing.
stdin: What value of half-life has been recorded for this entry: CCc1c(C)[nH]c2cc(OC)c(Cl)cc2c1=O
stdout: 28.4

stdin: Fill in: half-life of COc1cc2[nH]c(C)c(/C=C/C(=O)OC(C)(C)C)c(=O)c2cc1Cl is ___
stdout: 43.9

---
stdin: Field request: half-life | item: COc1cc2[nH]c(C)cc(=O)c2cc1Cl
stdout: 62.4

stdin: # half-life lookup, item COc1cc2[nH]c(C)c(-c3ccccc3)c(=O)c2cc1Cl
stdout: 21.3

stdin: Fill in: half-life of CCCCCCCc1c(C)nc2cc(OC)ccc2c1O is ___
stdout: 7.9
